tested on: biotinyl-Phe-oxazolone; experiment: self-aminoacylation, catalytic enhancement (BFO) (fold over background); higher = more active; k-Seq, kA / k0A0; sequences stand for … in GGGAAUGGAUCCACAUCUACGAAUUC…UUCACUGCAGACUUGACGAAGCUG
Variants at the floor of the assay were thinned out.
assay-readout: self-aminoacylation

[[record]]
biopolymer_sequence = "CUACAUAAAACAAUCGGUCUG [Fam1A.1 aminoacylation ribozyme variant]"
reported_value = 0.674

[[record]]
biopolymer_sequence = "CUACUUCAAGCAAUCGGUCCG [Fam1A.1 aminoacylation ribozyme variant]"
reported_value = 3.44

[[record]]
biopolymer_sequence = "CUGCUUCAAACCAUCGGUCUG [Fam1A.1 aminoacylation ribozyme variant]"
reported_value = 0.756

[[record]]
biopolymer_sequence = "AUUCACCUAGGGCAUCAGGUG [Fam2.2 aminoacylation ribozyme variant]"
reported_value = 1.46

[[record]]
biopolymer_sequence = "AUUCGCCUAAGUCAUCGGGUG [Fam2.2 aminoacylation ribozyme variant]"
reported_value = 117

[[record]]
biopolymer_sequence = "CCACACUUCAAGUAAUGGGUC [Fam1B.1 aminoacylation ribozyme variant]"
reported_value = 0.642

[[record]]
biopolymer_sequence = "AGUCACUUAGGUCAUCGGGUG [Fam2.2 aminoacylation ribozyme variant]"
reported_value = 46.1

[[record]]
biopolymer_sequence = "AAUCACCUCGGUCAUCGGGUG [Fam2.2 aminoacylation ribozyme variant]"
reported_value = 31.2

[[record]]
biopolymer_sequence = "CCACACUUCAAUCCAUCGGUC [Fam1B.1 aminoacylation ribozyme variant]"
reported_value = 0.794

[[record]]
biopolymer_sequence = "UUUACCCUUGUCAUCGAGUGA [Fam2.1 aminoacylation ribozyme variant]"
reported_value = 19.9

[[record]]
biopolymer_sequence = "AAAUUUGCUAAUAGUCGCAUG [Fam3.1 aminoacylation ribozyme variant]"
reported_value = 2.04

[[record]]
biopolymer_sequence = "CUACUUCAAUCAAUCAGUCUG [Fam1A.1 aminoacylation ribozyme variant]"
reported_value = 16.5

[[record]]
biopolymer_sequence = "CCACUCUGCAAGCAAUCGGUC [Fam1B.1 aminoacylation ribozyme variant]"
reported_value = 1.11

[[record]]
biopolymer_sequence = "AUGUUUGCUAACAGUCGCAAG [Fam3.1 aminoacylation ribozyme variant]"
reported_value = 5.92

[[record]]
biopolymer_sequence = "ACGUUUGCUAAUAGUCGCAAA [Fam3.1 aminoacylation ribozyme variant]"
reported_value = 2.87

[[record]]
biopolymer_sequence = "AUUACCCUGGUCCUCGAGUGU [Fam2.1 aminoacylation ribozyme variant]"
reported_value = 2.62

[[record]]
biopolymer_sequence = "AUUCACCUACGUCGUCGGGUG [Fam2.2 aminoacylation ribozyme variant]"
reported_value = 11.5

[[record]]
biopolymer_sequence = "ACACACUUCAAGCAAACGGUC [Fam1B.1 aminoacylation ribozyme variant]"
reported_value = 1.56

[[record]]
biopolymer_sequence = "CUAUUUCAAACAAACGGUCUG [Fam1A.1 aminoacylation ribozyme variant]"
reported_value = 1.2

[[record]]
biopolymer_sequence = "AGGUUUGCUAAUAGCCGCAAG [Fam3.1 aminoacylation ribozyme variant]"
reported_value = 4.78

[[record]]
biopolymer_sequence = "AUUACCCUGCUCAACGAGUGA [Fam2.1 aminoacylation ribozyme variant]"
reported_value = 24.7

[[record]]
biopolymer_sequence = "CCAGACGUCAAGCAAUCGGUC [Fam1B.1 aminoacylation ribozyme variant]"
reported_value = 0.503

[[record]]
biopolymer_sequence = "AUUACCCAGGUCAUCGAGUUA [Fam2.1 aminoacylation ribozyme variant]"
reported_value = 1.39

[[record]]
biopolymer_sequence = "CUAAUUCAAACAAUCGGUCCG [Fam1A.1 aminoacylation ribozyme variant]"
reported_value = 0.604

[[record]]
biopolymer_sequence = "AUUCACCGAGGGCAUCGGGUG [Fam2.2 aminoacylation ribozyme variant]"
reported_value = 30.9

[[record]]
biopolymer_sequence = "CUACUUCAAAAAAUCCGUCUG [Fam1A.1 aminoacylation ribozyme variant]"
reported_value = 1.02

[[record]]
biopolymer_sequence = "AAGAUUGCCAAUAGUCGCAAG [Fam3.1 aminoacylation ribozyme variant]"
reported_value = 1.69

[[record]]
biopolymer_sequence = "AUUACCCUGGUCAUCGAGUAG [Fam2.1 aminoacylation ribozyme variant]"
reported_value = 13.9

[[record]]
biopolymer_sequence = "AAGCUUGCUAAUAGUCUCAAG [Fam3.1 aminoacylation ribozyme variant]"
reported_value = 2.19

[[record]]
biopolymer_sequence = "AUUCACCUAGGUCCUCGGGUU [Fam2.2 aminoacylation ribozyme variant]"
reported_value = 8.53

[[record]]
biopolymer_sequence = "CCACACUUCAAGCCAUAGGUC [Fam1B.1 aminoacylation ribozyme variant]"
reported_value = 0.805

[[record]]
biopolymer_sequence = "GUUACCCUUGUCAUCGAGUGA [Fam2.1 aminoacylation ribozyme variant]"
reported_value = 48.1

[[record]]
biopolymer_sequence = "AUUCACCUAGCUCAUCGGGCG [Fam2.2 aminoacylation ribozyme variant]"
reported_value = 11.7

[[record]]
biopolymer_sequence = "CUACUUCAAACAAUCGCGCUG [Fam1A.1 aminoacylation ribozyme variant]"
reported_value = 1.59

[[record]]
biopolymer_sequence = "AUCACGCUGGUCAUCGAGUGA [Fam2.1 aminoacylation ribozyme variant]"
reported_value = 33.1


// data source = the supplement of paper PMC9233669
